- assay details: Metabolic stability in rat liver microsomes
- Type: in vitro ADME
- experimental setup: pH 7.4
value kind: half-life at 1 µM (min)
Use min as the unit, but write only the number.

Challenge: // half-life at 1 µM lookup, key: CN1CCN(c2ccc(OC(F)(F)F)c(Nc3ncc4ccc5c(C(=O)NO)nn(CCO)c5c4n3)c2)CC1
Response given: 19.6

====

- assay details: Metabolic stability in human liver microsomes
- Assay type: in vitro ADME
- experimental setup: pH 7.4, read-out: CLint(mic)
value kind: microsomal CLint at 1 µM (µL/min/mg)
Use µL/min/mg as the unit, but write only the number.

Challenge: // microsomal CLint at 1 µM lookup, key: CN1CCN(c2ccc(OC(F)(F)F)c(Nc3ncc4ccc5c(C(=O)NO)nn(CCO)c5c4n3)c2)CC1 [Compound 19]
Response given: 21.8
